- ASSAY_INFO: NCI Yeast Anticancer Drug Screen. Data for the mlh1 rad18 strain (AID 175)
- CONDITION_CONTEXT: S. cerevisiae mlh1 rad18 strain growth inhibition; at 50.0 µM; active compounds read high
The panel holds about 79,000 compounds, 15% with a hit somewhere; the sample as a whole holds those more often.
METRIC: growth inhibition (%)
The reply should be a number in %, with the unit left off.

Study these solved cases before continuing.
- COMPOUND: "COc1ccc(CC(N)C(N)=O)cc1 (configuration not stated)"
  TEST_RESULT: 6.5
- COMPOUND: "O=C(O)CCCc1ccc(O)cc1"
  TEST_RESULT: 20.3
- COMPOUND: "CC(C)=CCN(N=O)c1ncnc2nc[nH]c12"
  TEST_RESULT: 9.85
- COMPOUND: "N#C/C(N)=C(\\C#N)NC=NCCO"
  TEST_RESULT: -37.8
- COMPOUND: "O=C(O)c1ccc(Cl)cc1CC(Cl)(Cl)Cl"
  TEST_RESULT: 17.1

// next item, growth inhibition requested
[ask] Dear colleague, I am looking for the recorded growth inhibition of the following compound: c1ncn(Sn2cncn2)n1
[reply] -0.85

----------
growth inhibition values for the compounds below.
- ASSAY_INFO: NCI Yeast Anticancer Drug Screen. Data for the mlh1 rad18 strain (AID 175)
- CONDITION_CONTEXT: S. cerevisiae mlh1 rad18 strain growth inhibition; at 50.0 µM; active compounds read high
This is part of a sample that, as a whole, favours compounds with a hit. Of some 79,000 tested, about 15% had one in any assay.
Write it as a number; the unit % goes unstated.

- COMPOUND: "COCC1(c2ccccc2)C(=O)N(C)C(=O)N1C (stereo not drawn)"
  growth inhibition (%): 5.25
- COMPOUND: "CCCC(CC)(CC)CO"
  growth inhibition (%): -6.15
- COMPOUND: "C=C1c2nc3ccccc3n2C=C(c2ccc(Cl)cc2)N1c1ccc(OC)cc1"
  growth inhibition (%): 40.2
- COMPOUND: "BrC1CC2CC1C1C2CC2OC21 (stereo not drawn)"
  growth inhibition (%): -48.2
- COMPOUND: "O=c1[nH]c2c(Br)cccc2c2ccccc12"
  growth inhibition (%): 17.5

[ask] Returns the measured growth inhibition for the input compound. Input: CC1CSC(=S)N1C(=O)N1C(=S)SCC1C (stereo not drawn)
[reply] -35.5

[ask] Data request, read-out growth inhibition, for OCC1C2C=CC1CC2 (stereo not drawn)
[reply] -2.7

[ask] I have this compound here, NC(CSCCSCCSCC(N)C(=O)O)C(=O)O (stereo not drawn) , and I need its recorded growth inhibition.
[reply] -4.5

[ask] # lookup: growth inhibition of COC(=O)C(NC(=O)c1ccccc1)C(C)=O (stereo not drawn)
[reply] 10

[ask] What does the data say about its growth inhibition? Entry: O=S(=O)(c1ccc(NC(=S)N2CCOCC2)cc1)N1CCCCC1
[reply] 8.65

----------
- ASSAY_INFO: NCI Yeast Anticancer Drug Screen. Data for the bub3 strain (AID 167)
- CONDITION_CONTEXT: S. cerevisiae bub3 mutant strain, at 50.0 µM, active compounds read high
This is part of a sample that, as a whole, favours compounds with a hit. Of some 79,000 tested, about 15% had one in any assay.
METRIC: growth inhibition (%)
The response must be a number in % with no trailing unit.

Completed entries (count: 5):
- MOLECULE: "Cc1ccc(NCC(O)CN2CCOCC2)cc1 (stereo unspecified)"
  METRIC: "growth inhibition"
  TEST_RESULT: 6.5
- MOLECULE: "CCOC(=O)Nc1ccc(S(=O)(=O)c2ccc(Nc3ccnc4cc(Cl)ccc34)cc2)cc1"
  METRIC: "growth inhibition"
  TEST_RESULT: 5.45
- MOLECULE: "OC(Cc1ccccc1)CN1CCN(c2ccccc2)CC1 (stereo unspecified)"
  METRIC: "growth inhibition"
  TEST_RESULT: 8.05
- MOLECULE: "C[N+]1(C)N=C([O-])N(c2ccccc2F)C1=O"
  METRIC: "growth inhibition"
  TEST_RESULT: -2.15
- MOLECULE: "COc1cc(C#N)cc(OC)c1OC"
  METRIC: "growth inhibition"
  TEST_RESULT: 1.85

Now look at this entry.
[ask] Fill blank: measured growth inhibition of the molecule Cc1ccc(-c2cc(-c3ccccc3)c(C#N)c(=O)[nH]2)cc1 is ____.
[reply] 3.8

----------
- ASSAY_INFO: NCI Yeast Anticancer Drug Screen. Data for the mlh1 rad18 strain (AID 175)
- CONDITION_CONTEXT: S. cerevisiae mlh1 rad18 strain growth inhibition; at 50.0 µM; active compounds read high
The panel holds about 79,000 compounds, 15% with a hit somewhere; the sample as a whole holds those more often.
Parameter growth inhibition: see the listing below.
Express your answer in %, writing the number without its unit.

Past entries and their recorded results:
- MOLECULE: "OC(c1cc(C(F)(F)F)nc2c(Cl)cc(Cl)cc12)C1CCCCN1 (configuration not stated)"
  METRIC: "growth inhibition"
  READOUT_UNIT: "%"
  TEST_RESULT: 22.9
- MOLECULE: "CCCCN(Cc1ccccc1)C(=O)NC(C)(C)C"
  METRIC: "growth inhibition"
  READOUT_UNIT: "%"
  TEST_RESULT: 18.6
- MOLECULE: "O=C(Cc1ccccc1)c1ccc(OCC(O)CN2CCN(c3ccccc3)CC2)cc1 (configuration not stated)"
  METRIC: "growth inhibition"
  READOUT_UNIT: "%"
  TEST_RESULT: 96.3
- MOLECULE: "N.N.N.N.N.O=S(=O)([O-])S(=O)(=O)[O-].[Co+3]"
  METRIC: "growth inhibition"
  READOUT_UNIT: "%"
  TEST_RESULT: -9
- MOLECULE: "CC1=CC(=O)C(CCC#N)C(C)(C)C1 (configuration not stated)"
  METRIC: "growth inhibition"
  READOUT_UNIT: "%"
  TEST_RESULT: -0.4

[ask] What value of measured growth inhibition is listed for CSc1nc2c(c(=O)n1C)N=C(c1ccc([N+](=O)[O-])cc1)CC(c1ccccc1)N2 (configuration not stated) ?
[reply] -16.2

[ask] What value of measured growth inhibition is listed for O=C1NN(c2ccccc2)CCO1 ?
[reply] 2.15

[ask] Returns the measured growth inhibition for the input molecule. Input: CC(C)(O)/C1=C/C=C/CCCCCCCCCC1
[reply] 16.9

[ask] Using the record for CC(CN(C)C)/C(=N\Nc1ccccc1)c1ccccc1 (configuration not stated) , report its growth inhibition.
[reply] 35.4

[ask] Fill blank: measured growth inhibition of the molecule CCOc1cccc(OCC)c1C is ____.
[reply] 14.9

[ask] Given the molecule COC1CC(NC(C)=O)C(OC(C)=O)C(CN=[N+]=[N-])O1 (configuration not stated) , what is its reported growth inhibition?
[reply] 6.4

[ask] Requested read-out: growth inhibition. Entry: N#CC1(Cc2ccccc2[N+](=O)[O-])c2ccccc2C2C(N1C(=O)c1ccccc1)C2(Cl)Cl (configuration not stated)
[reply] 6.95

----------
- ASSAY_INFO: NCI Yeast Anticancer Drug Screen. Data for the rad50 strain (AID 155);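 note: 0% = growth of vehicle-only cultures of the same strain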
- CONDITION_CONTEXT: S. cerevisiae rad50 strain growth inhibition; at 50.0 µM; active compounds read high
Compounds without any hit were thinned out: in the full panel of roughly 79,000, 15% have a hit.
METRIC: growth inhibition (%)
// units = %; emit number, no label

Study these solved cases before continuing.
- COMPOUND: "Cc1cc2nc(Cl)n(C3OC(CO)C(O)C3O)c2cc1C (stereo unspecified)"
  READOUT_UNIT: "%"
  growth inhibition: 16.6
- COMPOUND: "Cc1nc2c(ncn2C2OC(CO)C(O)C2O)c(=O)[nH]1 (stereo unspecified)"
  READOUT_UNIT: "%"
  growth inhibition: -2.7
- COMPOUND: "CC(=O)N1CCOCC1"
  READOUT_UNIT: "%"
  growth inhibition: 23.1
- COMPOUND: "CC(C)[C@@H]1NC(=O)[C@@H]2N=C(O[C@H]2C)[C@H](C(C)C)NC(=O)C2N=C1O[C@H]2C"
  READOUT_UNIT: "%"
  growth inhibition: 11
- COMPOUND: "O=C(c1ccccc1)c1oc2ccc(Br)cc2c1-c1cnn(-c2ccccc2)c1"
  READOUT_UNIT: "%"
  growth inhibition: 29.2

[ask] Which growth inhibition is listed for CC1(C)C=C(C(=O)ON2C(=O)CCC2=O)C(C)(C)N1O ?
[reply] -4.85

----------
- ASSAY_INFO: NCI Yeast Anticancer Drug Screen. Data for the cln2 rad14 strain (AID 165);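 note: 0% = growth equal to vehicle treated cultures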
- CONDITION_CONTEXT: S. cerevisiae cln2 rad14 strain, at 50.0 µM, active compounds read high
About 79,000 compounds went through this panel and 15% of them were active in at least one assay; those are over-represented in the sample as a whole.
METRIC: growth inhibition (%)
Output spec: scalar in %, unitless text.

// worked examples, growth inhibition included
- MOLECULE: "CC1CN(C(=O)Cn2cnc([N+](=O)[O-])n2)CC(C)O1 (stereo unspecified)"
  METRIC: "growth inhibition"
  TEST_RESULT: 65.2
- MOLECULE: "O=C(Nc1ccc(Cl)cc1)Nc1nnc(-c2ccc(-c3nnc(NC(=O)Nc4ccc(Cl)cc4)o3)cc2)o1"
  METRIC: "growth inhibition"
  TEST_RESULT: -34.3
- MOLECULE: "O=C(Cc1ccccc1)NC(CSSCC(NC(=O)Cc1ccccc1)C(=O)O)C(=O)O (stereo unspecified)"
  METRIC: "growth inhibition"
  TEST_RESULT: -37.1
- MOLECULE: "CCOC(=O)NN(C(=O)OCC)C(C(=O)c1ccccc1)N(NC(=O)OCC)C(=O)OCC"
  METRIC: "growth inhibition"
  TEST_RESULT: 46.4
- MOLECULE: "CCCCOCCOC(=O)C(C)O (stereo unspecified)"
  METRIC: "growth inhibition"
  TEST_RESULT: 6.6
- MOLECULE: "CC(CCc1ccccc1)NC1=NCCO1 (stereo unspecified)"
  METRIC: "growth inhibition"
  TEST_RESULT: -23.6
- MOLECULE: "Brc1ccc(-c2oc3c4ccccc4c4ccccc4c3c2-c2ccc(Br)cc2)cc1"
  METRIC: "growth inhibition"
  TEST_RESULT: -0.95
- MOLECULE: "COc1ccccc1NC(=S)N/N=C/c1cccc(C)n1"
  METRIC: "growth inhibition"
  TEST_RESULT: -3.7
- MOLECULE: "CC1=CC(=O)/C(=C/N2CCNC2=S)C(=O)O1"
  METRIC: "growth inhibition"
  TEST_RESULT: 5.65
- MOLECULE: "Cc1nn(-c2ccc([N+](=O)[O-])cc2)c2c1C(C)(C)C(C#N)=C(N)O2"
  METRIC: "growth inhibition"
  TEST_RESULT: -3.55

Consider the record given below.
[ask] Dear colleague, I am looking for the recorded growth inhibition of the following molecule: C[N+](C)=c1ccc2nc3ccc(N)cc3sc-2c1
[reply] -66.7

The measurements presented in this section are drawn from PubChem BioAssay (NCI).
